Ref: BindingDB's records for doi:10.7270/Q2TX3CTT

Would you kindly list pEC50 for each of these compounds?
molecular target: Glycogen synthase kinase-3 beta (Homo sapiens); experiment: concentration-response blocking of human GSK3B – biochemical, luminescence, cell-free homogeneous, retest, dose response (AID 434954)
One number for each entry, as −log10 of the molar value.

Answer for every listed entry: what is its pEC50? The entries follow.
1. Nc1nc(NCc2ccc(Cl)cc2)nc(NCCO)c1[N+](=O)[O-]
2. CCC(=O)Nc1sc2c(c1C(N)=O)CCN(C(C)=O)C2
3. O=C1N=C(NCc2ccccc2)SC1=Cc1ccc(O)cc1
4. CCCN(CCC)Cc1c(C(=O)NN=Cc2cccs2)nnn1-c1nonc1N
5. Cc1ccc(S(=O)(=O)CCSc2n[nH]c(=O)n2-c2ccc3c(c2)OCCO3)cc1

4.87
4.86
5.52
4.22
4.13

* * *

target: Glycogen synthase kinase-3 beta (Homo sapiens, UniProt P49841); assay: concentration-response blocking of human GSK3B – biochemical, luminescence, cell-free homogeneous, retest, dose response (AID 434954)
Sequence (P49841 whole entry): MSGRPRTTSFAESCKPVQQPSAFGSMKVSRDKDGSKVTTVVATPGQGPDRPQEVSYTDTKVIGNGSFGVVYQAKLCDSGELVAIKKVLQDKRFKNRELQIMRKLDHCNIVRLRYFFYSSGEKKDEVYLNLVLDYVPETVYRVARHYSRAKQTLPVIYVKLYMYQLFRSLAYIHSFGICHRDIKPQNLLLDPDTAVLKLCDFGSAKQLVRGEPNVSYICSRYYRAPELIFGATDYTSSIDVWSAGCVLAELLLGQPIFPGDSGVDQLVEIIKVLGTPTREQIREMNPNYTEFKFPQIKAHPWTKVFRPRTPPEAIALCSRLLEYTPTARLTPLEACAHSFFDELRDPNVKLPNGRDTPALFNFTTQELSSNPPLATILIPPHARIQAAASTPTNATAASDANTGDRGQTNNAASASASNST
Please provide measured EC50 for the entries that follow.

> print(dat)
                                   molecule  assay.result
1  Nc1nc(Nc2cccc(F)c2)nc(NCCO)c1[N+](=O)[O-]        114 µM
2        N#Cc1c(O)nc(-c2ccncc2)nc1-c1ccccc1      > 300 µM
3  CCOC(=O)c1c(C)[nH]c(C)c1S(=O)(=O)NCC(=O)Nc1ccccn1      > 300 µM
4   O=[N+]([O-])c1ccccc1Oc1ccc(Cl)c2cccnc12      > 300 µM
5  COc1cc(/C=N/NC(=O)c2ccc(Cl)cc2)ccc1Oc1ccc([N+](=O)[O-])cn1      > 300 µM

Record EC50 for all entries; do not skip any.
1. COc1ccc(-c2nn(-c3ccccc3)cc2C=NN=C(N)N)cc1OC
2. COC(CSc1nc(N)c2c3c(sc2n1)CN(C)CC3)OC
3. CCOC(=O)c1c(S(=O)(=O)NCC(=O)Nc2ccccc2)c(C)n(C)c1C
4. CCn1c(SCC(=O)Nc2ccccc2)nnc1C1CCCCC1

["> 300 µM", "> 300 µM", "> 300 µM", "> 300 µM"]

// for each molecule below, give its EC50
1. COc1ccc(-c2nn(-c3ccccc3)cc2CN=Nc2ccc3ccccc3n2)cc1OC
2. CC(C(=O)Nc1cccnc1)n1cc([N+](=O)[O-])cn1 (stereo unspecified)

["> 300 µM", "> 300 µM"]

Your task in this section: give EC50 for each listed record.
1. CC1(C)Nc2ccc(O)cc2-c2c1ssc2=S
2. NC(=NNC(=O)c1ccc(Cl)cc1)c1cnccn1
3. Nc1nc(NCC2CCCO2)nc(NCC2CCCO2)c1[N+](=O)[O-] (stereo unspecified)
4. CC1Cc2cc(S(=O)(=O)N3CCN(c4ccccc4)CC3)ccc2N1C(=O)C1CC1 (stereo unspecified)
5. COCCn1c(SCC(=O)NC(=O)NCc2ccccc2)nc2ccccc21
6. CCOC(=O)c1cnc2c(OC)cccc2c1N1CCN(c2ccc(OC)cc2)CC1

1: 21.4 µM; 2: > 300 µM; 3: 12.2 µM; 4: > 300 µM; 5: > 300 µM; 6: > 300 µM

I'm hoping you can list EC50 for every molecule here, please.
1. CC(C)C(=O)NC(C)C(c1cccs1)N1CCN(c2ccccc2)CC1 (stereo unspecified)
2. Cc1nc2nc(=O)c3c(n2[nH]1)NC1=C(C(=O)CC(C)(C)C1)C3c1ccc(F)cc1 (stereo unspecified)
3. COC(=O)c1nnn(-c2nonc2N)c1CSc1nc2ccccc2o1
4. C=CCN1C(=O)C(Cc2ccc(Br)cc2)SC1=NN=Cc1ccco1 (stereo unspecified)
5. COCCn1c(SCC(=O)Nc2ccc(Cl)cn2)nc2ccccc21
6. O=C(c1ccccc1)c1ccc(NCCCn2ccnc2)c([N+](=O)[O-])c1

1. > 300 µM
2. > 300 µM
3. 127 µM
4. > 300 µM
5. 3.82 µM
6. 6.85 µM

* * *

molecular target: Glycogen synthase kinase-3 beta (Homo sapiens); assay: concentration-response blocking of human GSK3B – biochemical, luminescence, cell-free homogeneous, retest, dose response (AID 434954)
Assign EC50 to each entry below.
Numbers only, in µM.

> print(dat)
                              smiles.input  assay.result
1   COc1ccc(Nc2nc(N)nc(CSc3nnc(C)s3)n2)cc1            82
2  CC(C)OC(=O)c1nnn(-c2nonc2N)c1CSc1ccccn1          54.1

Form field: EC50 recorded for O=c1[nH]nc(SCCS(=O)(=O)c2ccc(F)cc2)n1-c1ccc2c(c1)OCCO2 with Glycogen synthase kinase-3 beta (Homo sapiens) (enter value)
24.1

* * *

molecular target: UniProtKB P49841; experiment: concentration-response blocking of human GSK3B – biochemical, luminescence, cell-free homogeneous, retest, dose response (AID 434954)
pEC50: −log10 of the molar value.
Measurement Label: pEC50

Worked examples, 2 molecules total:
> print(dat)
                                   molecule  assay.result
1  CN1CCc2c(sc3c2c(=O)n(-c2ccccc2)c2nnc(SCc4ccccc4)n32)C1        < 3.52
2  C=CCOC(=O)C1C(C)=Nc2ncnn2C1c1cccs1 (stereo not given)        < 3.52

Take each entry in turn and give its pEC50.
1. Fc1ccc(CSc2nnc(-c3cccnc3)o2)cc1
2. COc1ccc(C=C2SC(NCc3ccccc3)=NC2=O)cc1
3. O=C(Nc1cccc(-c2cnc3ccccc3n2)c1)c1ccccc1 [N-[3-(2-quinoxalinyl)phenyl]benzamide]
4. Cn1nc2c3ccccc3n(Cc3ccc(F)cc3)c2nc1=S
5. COCCN1C(=O)N[C@@H](c2cccc(C(F)(F)F)c2)[C@H](C(C)=O)[C@H]1C
6. CCc1nn(CC(=O)NCCN2CCN(C)CC2)c(=O)c2cc3c(OC)cccc3n12
7. Cc1ccc2cc(NC(=O)c3cccc(F)c3)ccc2n1
8. COc1ccc2nc(NC(=O)CSc3nc4cccnc4n3C)sc2c1

["< 3.52", 5.15, "< 3.52", "< 3.52", "< 3.52", "< 3.52", "< 3.52", 3.95]

* * *

target: UniProtKB P49841; test: concentration-response blocking of human GSK3B – biochemical, luminescence, cell-free homogeneous, retest, dose response (AID 434954)
Measurement Label: EC50

Below, each entry is followed by its recorded EC50 result.
> print(dat)
                                   compound  measurement.label  assay.result
1  O=NCc1ccc(Oc2cccc(Cl)c2)c([N+](=O)[O-])c1               EC50       38.2 µM
2   Clc1cccc(CNc2nc(-c3cccnc3)nc3ccccc23)c1               EC50      > 300 µM
3           Cc1ccc(C=NNC(=O)c2cncc(Br)c2)o1               EC50      > 300 µM
4   CCOC(=O)c1nnn(-c2nonc2N)c1-c1ccc(OC)cc1               EC50       14.4 µM
5   CN1CCc2c(sc(NC(=O)Cc3ccccc3)c2C(N)=O)C1               EC50      > 300 µM

Look up EC50 for the entries below, preserving their order.
1. Cc1ccc(CSc2ccc3nnc(-c4ccccn4)n3n2)cc1
2. CCOC(=O)c1c(-c2ccc(C)o2)csc1N
3. Cc1ccc(C2c3c(C)noc3N=C3CC(C)(C)CC(=O)C32)cc1 (stereo not given)
4. CC(=O)Nc1ccccc1C(=O)OCc1ccc(C(=O)c2ccccc2)cc1
5. O=C(CCS(=O)(=O)c1ccccc1)Nc1ncc([N+](=O)[O-])s1

["> 300 µM", "> 300 µM", "> 300 µM", "> 300 µM", "> 300 µM"]

* * *

Please respond with reported EC50 for every item in the list.
molecular target: Glycogen synthase kinase-3 beta (Homo sapiens); test: concentration-response blocking of human GSK3B – biochemical, luminescence, cell-free homogeneous, retest, dose response (AID 434954)

> print(dat)
                                   compound                           target.of.assay  assay.result
1  CN(C)c1nc(-c2ccccc2)nc(-c2ccc(Cl)cc2)c1C#N  Glycogen synthase kinase-3 beta (Homo sapiens)      > 300 µM
2  Cc1ccc(NC(=O)C2CCN(S(=O)(=O)c3ccc4c(c3)NC(=O)C(C)S4)CC2)c(Cl)c1 (stereo not given)  Glycogen synthase kinase-3 beta (Homo sapiens)      > 300 µM
3  Cc1ccc(C(C(=O)NC2CCCCC2)N(CC2CCCO2)C(=O)CNC(=O)c2cccs2)cc1 (stereo not given)  Glycogen synthase kinase-3 beta (Homo sapiens)      > 300 µM
4  COc1ccc(N2CCN(c3cc(C)nc4ccc(OC)cc34)CC2)cc1  Glycogen synthase kinase-3 beta (Homo sapiens)      > 300 µM

Give the measured EC50 of O=[N+]([O-])c1cc(-c2nc(-c3ccncc3)no2)ccc1Cl .
> 300 µM
